- Measurement Target: CD137 (Homo sapiens)
- Assay Details: CD137 reporter assay (Promega, Jurkat cells) in co-culture with EphA2-expressing tumor cells (A549, PC3, HT29)
- Format: cell-based
- Design: host or cells: Jurkat reporter cells
- Test Context: EC50, CD137 reporter coculture assay with PC3 tumor cells
Starred links: 1 amine or outer side, 2 acyl side, 3 side chain; linkers in the order of their positions; H or OH if unused. Positions of bridges follow the written chain, without caps; N, C: chain ends. Non-standard residues stand in square brackets, D forms with d. Chains are numbered I, II in the order given. X1 = O=C(CCOCCOCCOCCN(CCOCCOCCOCCn1cc(CCC(=O)[*:2])nn1)CCOCCOCCOCCn1cc(CCC(=O)[*:3])nn1)[*:1]; TATA = O=C(CC[*:1])N1CN(C(=O)CC[*:2])CN(C(=O)CC[*:3])C1; d1Nal = N[C@H](Cc1cccc2ccccc12)C(=O)O; Hyp = O=C(O)[C@@H]1C[C@@H](O)CN1; hArg = N=C(N)NCCCC[C@H](N)C(=O)O; tBuAla = CC(C)(C)C[C@H](N)C(=O)O; Cba = N[C@@H](CC1CCC1)C(=O)O; dNle = CCCC[C@@H](N)C(=O)O; Nle = CCCC[C@H](N)C(=O)O
Quantity Name: pEC50
Interpret pEC50 as the negative base-10 log of the concentration measured in mol/L.

Endpoint output: pEC50 of I: [d1Nal][hArg]DC[Hyp][Cba]VNPLCLEP[dA]WTC[dA]-NH2 / II: Ac-C[tBuAla]PE[dK]PYCFADPY[Nle]CA-NH2 / III: Ac-C[tBuAla]PE[dK]PYCFADPY[Nle]CA-NH2 (linker I:4-I:11-I:18, II:1-II:8-II:15, III:1-III:8-III:15 via TATA; linker I:N-II:5-III:5 via X1) [BCY13278] . Value? 9.85

For I: A[hArg]DC[Hyp]LVNPLCLHP[dNle]W[hArg]C-NH2 / II: Ac-C[tBuAla]PE[dK]PYCFADPY[Nle]CA-NH2 / III: Ac-C[tBuAla]PE[dK]PYCFADPY[Nle]CA-NH2 (linker I:4-I:11-I:18, II:1-II:8-II:15, III:1-III:8-III:15 via TATA; linker I:N-II:5-III:5 via X1) [BCY13288] then? 10.05

###

- Measurement Target: CD137 (Homo sapiens, UniProt Q07011)
- Sequence (Q07011 24-255): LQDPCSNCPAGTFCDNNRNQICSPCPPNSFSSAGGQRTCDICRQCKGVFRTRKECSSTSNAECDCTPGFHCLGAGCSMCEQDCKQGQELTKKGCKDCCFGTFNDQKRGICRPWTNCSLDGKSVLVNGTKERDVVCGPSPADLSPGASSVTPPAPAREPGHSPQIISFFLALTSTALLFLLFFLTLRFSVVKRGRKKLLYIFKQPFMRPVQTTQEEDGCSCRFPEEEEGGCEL
- Assay Details: CD137 reporter assay (Promega, Jurkat cells) in co-culture with EphA2-expressing tumor cells (A549, PC3, HT29)
- Format: cell-based
- Parameters: host or cells: Jurkat reporter cells
- Test Context: EC50, CD137 reporter coculture assay with PC3 tumor cells
Starred links: 1 amine or outer side, 2 acyl side, 3 side chain; linkers in the order of their positions; H or OH if unused. Positions of bridges follow the written chain, without caps; N, C: chain ends. Non-standard residues stand in square brackets, D forms with d. Chains are numbered I, II in the order given. X1 = O=C(CCOCCOCCOCCN(CCOCCOCCOCCn1cc(CCC(=O)[*:2])nn1)CCOCCOCCOCCn1cc(CCC(=O)[*:3])nn1)[*:1]; TATA = O=C(CC[*:1])N1CN(C(=O)CC[*:2])CN(C(=O)CC[*:3])C1; Hyp = O=C(O)[C@@H]1C[C@@H](O)CN1; hArg = N=C(N)NCCCC[C@H](N)C(=O)O; tBuAla = CC(C)(C)C[C@H](N)C(=O)O; Nle = CCCC[C@H](N)C(=O)O
Quantity Name: pEC50
Lab note — pEC50 values are minus log10 of concentrations in M.

Suppose we examine the substance I: A[hArg]DC[Hyp]LVNPLCLEP[dD]WTC[dA]-NH2 / II: Ac-C[tBuAla]PE[dK]PYCFADPY[Nle]CA-NH2 / III: Ac-C[tBuAla]PE[dK]PYCFADPY[Nle]CA-NH2 (linker I:4-I:11-I:18, II:1-II:8-II:15, III:1-III:8-III:15 via TATA; linker I:N-II:5-III:5 via X1) [BCY13045] ; what pEC50 value has been reported? 9.64

Let us now turn to I: [dA][dA]DC[Hyp]LVNPLCLEP[dD]WTC-NH2 / II: Ac-C[tBuAla]PE[dK]PYCFADPY[Nle]CA-NH2 / III: Ac-C[tBuAla]PE[dK]PYCFADPY[Nle]CA-NH2 (linker I:4-I:11-I:18, II:1-II:8-II:15, III:1-III:8-III:15 via TATA; linker I:N-II:5-III:5 via X1) [BCY13281] 9.77
